assay-system: Cytochrome P450 2C9 (Homo sapiens)
experiment-description: Cytochrome panel assay with activity outcomes
test-conditions: recombinant CYP, pro-luciferin dealkylation, luminescence, p450-cyp2c9; series mostly up to 57.1 µM
The whole screen tested about 16,000 compounds, of which about 4,000 (25%) were called active. Inconclusive results (about 26%) are left out. Calls follow the shape of the dose curve; as a rule, active = well fitted curve in the direction sought with a large enough effect; inconclusive = small, poorly fitted or top-dose-only effect, or effect the other way; inactive = no such curve, though single readings can be large or run the other way. Not all results are given here.
The reply should name one outcome from 1 for active, 0 for inactive

Which outcome was entered for the compound CC(=O)C[C@H](c1ccc([N+](=O)[O-])cc1)c1c(O)c2ccccc2oc1=O in this test?
1

Which outcome was entered for the compound COCCn1nc2cc(C(=O)NCc3cc(C(F)(F)F)cc(C(F)(F)F)c3)ccc2c1OC in this test?
0

Which outcome was entered for the compound COCCCNC(=O)CCC(=O)Nc1ccc2nc(N3CCOCC3)cc(C)c2c1 in this test?
0

Which outcome was entered for the compound CCn1nc2cc(C(=O)NCC34CC5CC(CC(C5)C3)C4)ccc2c1OC in this test?
1

// provenance: PubChem BioAssay AID1851
